# inhibition at 0.5 µM per entry
Tested on: RSV strain A2
protocolDescription: RSV antiviral cytoprotection assay in Hep2 cells (96-well and 384-well format, Cell TiterGlo read-out)
Type: cell-based, Respiratory Syncytial Virus (RSV)
reportedConditions: human respiratory syncytial virus, HEp-2, 0.5 uM; RSV-induced cytopathic effect in Hep2 cells; calculated from fitted dose response curve, normalized to 0% and 100%
Record the value in %, omitting the unit from your answer.

So what inhibition at 0.5 µM did Cc1cn2nc([C@@H]3CCCCN3C(=O)c3cnn(C4CCCC4)c3)cc2nc1N1CC[C@H](N)C1 [Compound 366] get with RSV strain A2? 100

// repeat for Cc1cn2nc([C@@H]3CCCCN3C(=O)c3cnco3)cc2nc1N1CC[C@H](N)C1 [Compound 259] and report 28

###

Test system: RSV strain A2
protocolDescription: RSV antiviral cytoprotection assay in Hep2 cells (96-well and 384-well format, Cell TiterGlo read-out)
Format: cell-based, Respiratory Syncytial Virus (RSV)
reportedConditions: human respiratory syncytial virus, HEp-2, 0.5 uM; RSV-induced cytopathic effect in Hep2 cells; calculated from fitted dose response curve, normalized to 0% and 100%
This listing pairs compounds with measured inhibition at 0.5 µM.
Answer format: numeric, % implied, no suffix.

Consider the reported inhibition at 0.5 µM for these compounds:
{"compound": "Cc1cc(C2CC2)nc2cc([C@@H]3CCCCN3C(=O)c3cc(F)cc(Br)c3NS(C)(=O)=O)nn12", "targetOrTestSystem": "RSV strain A2", "inhibition at 0.5 µM / %": 97}
{"compound": "CC(=O)Nc1ccc(Cl)cc1C(=O)N1CCCC[C@H]1c1cc2nc(N3CC[C@H](N)C3)c(C)cn2n1", "targetOrTestSystem": "RSV strain A2", "inhibition at 0.5 µM / %": 100}
{"compound": "Cc1cn2nc([C@@H]3CCCCN3C(=O)c3cc(Cl)ccc3NS(C)(=O)=O)cc2nc1N1CC[C@@H](CN)C1", "targetOrTestSystem": "RSV strain A2", "inhibition at 0.5 µM / %": 99}
{"compound": "Cc1cccc(C(=O)N2CCCC[C@H]2c2cc3nc(N4CC[C@H](N)C4)c(C)cn3n2)n1", "targetOrTestSystem": "RSV strain A2", "inhibition at 0.5 µM / %": 100}
{"compound": "Cc1cn2nc([C@@H]3CC[C@H](C)CN3C(=O)c3cc(Cl)ccc3NS(C)(=O)=O)cc2nc1N1CC(O)C1", "targetOrTestSystem": "RSV strain A2", "inhibition at 0.5 µM / %": 100}

--- query ---
Name the recorded inhibition at 0.5 µM for CS(=O)(=O)Nc1ccc(Cl)cc1C(=O)N1CCCC[C@H]1c1cc2nc(N3CCC3)cc(N3CC(N)C3)n2n1 . 96

###

Recorded inhibition at 0.5 µM by entry
System: RSV strain A2
protocolDescription: RSV antiviral cytoprotection assay in Hep2 cells (96-well and 384-well format, Cell TiterGlo read-out)
Assay type: cell-based, Respiratory Syncytial Virus (RSV)
reportedConditions: human respiratory syncytial virus, HEp-2, 0.5 uM; RSV-induced cytopathic effect in Hep2 cells; calculated from fitted dose response curve, normalized to 0% and 100%
Write down the value, and be sure its unit follows.

{"molecule": "CS(=O)(=O)Nc1ccc(Cl)cc1C(=O)N1CCCC[C@H]1c1cc2nc(N3CCC3)cc(N3CCCNCC3)n2n1", "result": "100%"}

Give the reported inhibition at 0.5 µM for CS(=O)(=O)Nc1ccc(Cl)cc1C(=O)N1CCCC[C@H]1c1cc2nc(N3CCC3)ccn2n1 (system: RSV strain A2). 100%

Another: Cc1cn2nc([C@@H]3CCCCN3C(=O)c3cc(Cl)ccc3Cl)cc2nc1N1CC[C@H](N)C1 99%

Follow-up item: Cc1cn2nc([C@@H]3CCCCN3C(=O)c3cc(Cl)ncc3Cl)cc2nc1N1CC[C@H](N)C1 100%

For Cc1cn2nc([C@@H]3CCCCN3C(=O)c3cc(C(F)(F)F)n(C)n3)cc2nc1N1CC[C@H](N)C1 then? 100%

Ok, now Cc1cn2nc([C@@H]3CCCCN3C(=O)c3cc(Cl)ccc3NS(C)(=O)=O)cc2nc1N1CCC[C@H]1CN1CCCC1 99%

Could you do the same for CNC1CCN(c2nc3cc([C@@H]4CCCCN4C(=O)c4cc(Cl)ccc4NS(C)(=O)=O)nn3cc2C)C1 (stereo partly shown) , please? 98%
